# assay-overview: Cytotoxicity assay (alamarBlue)
# Type: cell-based, murine
# recorded-conditions: mouse, J774A.1 macrophage cell line; J774A.1, 24 h; read-out: Murine Macrophages CC50
observed-property: CC50 at 24 h (µM)
// units = µM; emit number, no label

Data request: Any idea what its CC50 at 24 h is? The compound is CC1=C(CO)C(=O)O[C@@H]([C@@H](C)[C@H]2CC[C@H]3[C@@H]4C[C@H]5O[C@]56[C@@H](O)C=CC(=O)[C@]6(C)[C@H]4CC[C@]23C)C1 [Compound 1, withaferin A]
Data returned: 11.9
